# system.under.test: Man(a1-2)Man(a1-3)[Man(a1-2)Man(a1-6)]Man
# experiment.description: glycan array binding signal (z-score within array); higher = stronger binding
# condition.info: glycan notation: IUPAC condensed, linker removed
Many of the other results were omitted from the sample, so the strongest signals are more common in it than they were.

- binder: "DGL (Dioclea grandiflora), P08902 (protein) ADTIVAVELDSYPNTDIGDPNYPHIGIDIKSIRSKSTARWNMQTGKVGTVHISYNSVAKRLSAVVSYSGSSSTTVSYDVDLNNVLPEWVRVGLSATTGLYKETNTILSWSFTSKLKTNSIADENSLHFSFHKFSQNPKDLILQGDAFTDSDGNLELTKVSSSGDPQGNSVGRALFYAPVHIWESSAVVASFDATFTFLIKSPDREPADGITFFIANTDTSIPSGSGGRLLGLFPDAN"
  glycan array binding signal (z-score): 9.67
- binder: "Microvirin-2 (Microcystis aeruginosa) (protein) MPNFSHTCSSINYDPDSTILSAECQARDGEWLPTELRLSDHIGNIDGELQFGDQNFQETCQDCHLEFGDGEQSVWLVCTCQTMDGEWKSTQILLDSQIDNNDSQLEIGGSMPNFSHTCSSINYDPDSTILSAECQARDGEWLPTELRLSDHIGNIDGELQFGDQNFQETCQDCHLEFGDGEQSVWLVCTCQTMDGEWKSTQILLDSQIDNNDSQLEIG"
  glycan array binding signal (z-score): 7.03
- binder: "CSA (Cytisus scoparius), P29257 (protein) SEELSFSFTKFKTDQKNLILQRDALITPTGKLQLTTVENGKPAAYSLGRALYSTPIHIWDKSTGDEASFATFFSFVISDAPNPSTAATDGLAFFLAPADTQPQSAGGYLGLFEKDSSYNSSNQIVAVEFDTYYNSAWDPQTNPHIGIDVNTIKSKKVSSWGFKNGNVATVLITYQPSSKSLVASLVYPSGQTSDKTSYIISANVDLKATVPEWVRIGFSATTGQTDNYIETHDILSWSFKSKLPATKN"
  glycan array binding signal (z-score): -0.234
- binder: "Cohesin-hDECTIN-1 (Homo sapiens) (protein) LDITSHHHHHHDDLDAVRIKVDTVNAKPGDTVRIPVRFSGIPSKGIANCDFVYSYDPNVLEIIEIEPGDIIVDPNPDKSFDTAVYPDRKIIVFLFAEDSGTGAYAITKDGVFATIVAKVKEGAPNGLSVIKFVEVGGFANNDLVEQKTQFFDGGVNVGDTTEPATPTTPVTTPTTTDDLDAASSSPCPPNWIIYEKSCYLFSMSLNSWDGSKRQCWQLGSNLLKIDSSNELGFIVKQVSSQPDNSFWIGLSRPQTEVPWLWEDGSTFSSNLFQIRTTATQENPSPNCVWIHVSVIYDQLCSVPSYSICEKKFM"
  glycan array binding signal (z-score): -0.432
- binder: "LcH (Lens culinaris), P02870 (protein) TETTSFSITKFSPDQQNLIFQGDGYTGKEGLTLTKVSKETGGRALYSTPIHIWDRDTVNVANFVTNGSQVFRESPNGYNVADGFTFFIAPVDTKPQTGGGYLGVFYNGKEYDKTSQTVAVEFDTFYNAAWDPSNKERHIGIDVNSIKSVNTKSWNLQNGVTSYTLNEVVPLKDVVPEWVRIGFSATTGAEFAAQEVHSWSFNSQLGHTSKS"
  glycan array binding signal (z-score): 1.24

Where do the numbers come from? From the supplement of paper PMC8728848.
